System: HBV capsid assembly and pgRNA encapsidation in AML12HBV10 cells
Assay: Mode of action study in AML12HBV10 cells
Type: cell-based, hepatitis B virus (mouse hepatocyte-derived cell line)
Conditions: 2 days, ETV 1 μM, Bay 41-4109 2 μM, DVR-23 5 μM, 17 or 18 1 or 5 μM, Northern blot
Reported property: amount of encapsidated pgRNA

INSERT INTO results (compound, reported_property, data_value) VALUES
  ('O=C(Nc1ccc(F)c(Cl)c1)N1CCNc2ccccc21 [Compound 17]', 'amount of encapsidated pgRNA', 'drastically reduced'),
  ('O=C(Nc1ccc(F)c(Cl)c1)N1CCN(C(=O)Nc2ccc(F)c(Cl)c2)c2ccccc21 [Compound 18]', 'amount of encapsidated pgRNA', 'drastically reduced'),
  ('COC(=O)C1=C(C)NC(c2ncc(F)cc2F)=N[C@H]1c1ccc(F)cc1Cl [Bay 41-4109]', 'amount of encapsidated pgRNA', 'significantly reduced'),
  ('CCC(C)NS(=O)(=O)c1ccc(F)c(C(=O)Nc2ccc(F)c(F)c2)c1 (centres unmarked) [DVR-23]', 'amount of encapsidated pgRNA', 'significantly reduced');

Cited source for all entries: paper PMC10753860
